Origin of values: ChEMBL document CHEMBL1649565

System: Proteus vulgaris
assayMethodText: Antibacterial activity against Proteus vulgaris by CLSI M7-A7 method
Assay type: functional
Recorded MIC50 by entry
Only the number, expressed in µg/mL, is required.

compound	propertyMeasured	unitLabel	testResult
C[C@H]1COc2c(N3CCN(C)CC3)c(F)cc3c(=O)c(C(=O)O)cn1c23.C[C@H]1COc2c(N3CCN(C)CC3)c(F)cc3c(=O)c(C(=O)O)cn1c23.O	MIC50	µg/mL	0.03
CC(C)(O/N=C(\C(=O)N[C@@H]1C(=O)N2C(C(=O)[O-])=C(C[n+]3ccccc3)CS[C@H]12)c1csc(N)n1)C(=O)O	MIC50	µg/mL	0.06
C[C@@H](O)[C@H]1C(=O)N2C(C(=O)O)=C(SCCNC=N)C[C@H]12 [IMIPENEM ANHYDROUS]	MIC50	µg/mL	1
N[C@@H]1CCCCN(c2c(F)cc3c(=O)c(C(=O)O)cn(C4CC4)c3c2Cl)C1	MIC50	µg/mL	0.12

From here, focus on the item given below.
Query block: Report MIC50 for NC[C@H]1O[C@H](O[C@H]2[C@H](O)[C@@H](O[C@H]3O[C@H](CO)[C@@H](O)[C@H](N)[C@H]3O)[C@H](N)C[C@@H]2N)[C@H](N)C[C@@H]1O
Result block: 1
